As shown below, each of these molecules has a reported Tmax value.
assay: Single oral dose human plasma pharmacokinetics of D, DA and DOH after Cogni.Q; format: in vivo; conditions: female, human, plasma, oral, Women n=10 (S1 Table); read-out: Tmax, h, Mean, F

Molecule | Tmax
CC1(C)Oc2cc3oc(=O)ccc3cc2C[C@@H]1O | 4.1 h
CC(C)=CC(=O)O[C@H]1Cc2cc3ccc(=O)oc3cc2OC1(C)C | 2.4 h
C/C=C(/C)C(=O)O[C@H]1Cc2cc3ccc(=O)oc3cc2OC1(C)C [DA, decursinol angelate] | 2.7 h

====

As shown below, each of these compounds has a reported AUC(0-t) value.
test: Single oral dose human plasma pharmacokinetics of D, DA and DOH after Cogni.Q; type: in vivo; settings: human, plasma, oral, 4 Cogni.Q vegicaps, subject S9 (158 lb); read-out: AUC0-48h

Compound | Uom | AUC(0-t)
CC(C)=CC(=O)O[C@H]1Cc2cc3ccc(=O)oc3cc2OC1(C)C | µM·h | 0.0206
C/C=C(/C)C(=O)O[C@H]1Cc2cc3ccc(=O)oc3cc2OC1(C)C [DA, decursinol angelate] | µM·h | 0.0808
CC1(C)Oc2cc3oc(=O)ccc3cc2C[C@@H]1O | µM·h | 17.7
